systemUnderTest: Fatty acid synthase (Homo sapiens)
Sequence (P49327 whole entry): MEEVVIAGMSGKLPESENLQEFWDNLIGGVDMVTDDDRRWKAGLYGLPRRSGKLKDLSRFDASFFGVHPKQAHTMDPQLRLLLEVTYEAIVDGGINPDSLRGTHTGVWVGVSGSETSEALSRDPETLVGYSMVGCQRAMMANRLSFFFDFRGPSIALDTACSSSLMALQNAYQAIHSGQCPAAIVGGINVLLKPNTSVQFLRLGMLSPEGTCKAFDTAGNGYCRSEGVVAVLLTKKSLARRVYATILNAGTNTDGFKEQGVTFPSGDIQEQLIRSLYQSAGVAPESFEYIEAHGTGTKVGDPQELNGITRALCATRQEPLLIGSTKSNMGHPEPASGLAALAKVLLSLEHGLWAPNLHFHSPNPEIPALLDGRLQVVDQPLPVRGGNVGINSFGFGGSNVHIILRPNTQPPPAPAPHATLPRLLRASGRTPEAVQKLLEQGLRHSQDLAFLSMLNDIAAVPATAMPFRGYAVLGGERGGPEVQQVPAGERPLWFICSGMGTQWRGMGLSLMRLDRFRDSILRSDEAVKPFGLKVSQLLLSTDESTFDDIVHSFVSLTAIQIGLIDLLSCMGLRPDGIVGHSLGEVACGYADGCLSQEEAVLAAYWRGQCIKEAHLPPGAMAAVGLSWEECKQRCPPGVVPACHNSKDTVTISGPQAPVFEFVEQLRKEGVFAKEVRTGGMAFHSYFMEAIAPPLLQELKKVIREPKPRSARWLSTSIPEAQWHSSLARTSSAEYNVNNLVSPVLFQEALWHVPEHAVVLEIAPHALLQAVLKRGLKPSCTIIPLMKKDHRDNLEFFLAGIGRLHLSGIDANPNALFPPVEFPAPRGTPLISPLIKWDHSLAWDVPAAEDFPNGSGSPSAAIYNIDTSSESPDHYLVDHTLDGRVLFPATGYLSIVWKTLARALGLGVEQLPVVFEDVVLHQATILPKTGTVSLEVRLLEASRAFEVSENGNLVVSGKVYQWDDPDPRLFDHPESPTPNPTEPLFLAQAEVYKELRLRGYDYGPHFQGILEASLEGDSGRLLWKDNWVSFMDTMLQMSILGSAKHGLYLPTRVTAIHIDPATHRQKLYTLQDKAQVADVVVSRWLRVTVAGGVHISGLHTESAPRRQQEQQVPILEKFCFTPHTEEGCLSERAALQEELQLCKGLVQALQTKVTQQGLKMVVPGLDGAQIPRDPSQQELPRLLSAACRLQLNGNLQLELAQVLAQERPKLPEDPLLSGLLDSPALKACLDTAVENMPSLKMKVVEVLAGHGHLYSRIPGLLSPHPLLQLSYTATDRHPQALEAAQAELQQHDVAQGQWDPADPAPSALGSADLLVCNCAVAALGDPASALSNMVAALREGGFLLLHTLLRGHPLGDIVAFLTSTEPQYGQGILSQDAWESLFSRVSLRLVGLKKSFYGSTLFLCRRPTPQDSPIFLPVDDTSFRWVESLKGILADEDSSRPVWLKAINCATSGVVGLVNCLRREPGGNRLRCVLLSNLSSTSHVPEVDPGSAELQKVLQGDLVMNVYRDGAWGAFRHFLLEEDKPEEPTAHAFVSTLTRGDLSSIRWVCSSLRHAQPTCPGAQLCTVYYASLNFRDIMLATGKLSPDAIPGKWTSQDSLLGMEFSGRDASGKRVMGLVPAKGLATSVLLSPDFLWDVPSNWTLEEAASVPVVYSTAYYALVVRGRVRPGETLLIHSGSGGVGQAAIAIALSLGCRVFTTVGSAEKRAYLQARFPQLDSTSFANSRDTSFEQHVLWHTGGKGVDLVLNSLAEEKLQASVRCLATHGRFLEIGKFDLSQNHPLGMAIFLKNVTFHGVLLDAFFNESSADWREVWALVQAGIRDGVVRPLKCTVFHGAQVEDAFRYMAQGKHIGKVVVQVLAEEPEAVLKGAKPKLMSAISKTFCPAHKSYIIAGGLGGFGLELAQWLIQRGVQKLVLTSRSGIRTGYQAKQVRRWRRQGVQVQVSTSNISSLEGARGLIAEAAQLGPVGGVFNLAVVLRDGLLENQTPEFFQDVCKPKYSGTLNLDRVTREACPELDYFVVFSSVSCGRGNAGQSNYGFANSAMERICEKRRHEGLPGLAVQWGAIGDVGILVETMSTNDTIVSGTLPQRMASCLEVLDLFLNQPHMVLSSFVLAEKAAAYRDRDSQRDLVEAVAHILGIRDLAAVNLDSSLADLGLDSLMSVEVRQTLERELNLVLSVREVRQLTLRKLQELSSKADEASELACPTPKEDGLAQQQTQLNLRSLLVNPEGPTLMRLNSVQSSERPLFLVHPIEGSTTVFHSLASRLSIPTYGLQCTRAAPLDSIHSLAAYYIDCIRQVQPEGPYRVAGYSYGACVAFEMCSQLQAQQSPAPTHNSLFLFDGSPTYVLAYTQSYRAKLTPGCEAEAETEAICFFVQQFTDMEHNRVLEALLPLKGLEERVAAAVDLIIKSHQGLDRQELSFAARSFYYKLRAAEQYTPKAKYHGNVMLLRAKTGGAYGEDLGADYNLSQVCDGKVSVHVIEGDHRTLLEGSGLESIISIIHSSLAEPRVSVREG
assaySummary: inhibition of human FAS-TE enzyme activity – biochemical, kinetic fluorescence intensity, dose response (AID 624326);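 note: rate of fluorescence rise from hydrolysis of a fluorogenic O-methyl fluorescein ester substrate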
Type: functional
The source made the active and inactive calls.
# Lookup of reported IC50 keyed by entry

Field: example entries. Status: answers known.
[
  {
    "chemSmiles": "Cn1c(/C=C/N(Cc2ccccc2)c2ccccc2)c([N+](=O)[O-])c(=O)n(C)c1=O",
    "dataValue": "16.3 µM (active)"
  },
  {
    "chemSmiles": "O=[N+]([O-])c1ccc(S(=O)(=O)Nc2ccc(-c3ccccc3)cc2)cc1",
    "dataValue": "6.47 µM (active)"
  },
  {
    "chemSmiles": "O=[N+]([O-])c1cc(S(=O)(=O)Nc2cccc(C(F)(F)F)c2)ccc1-n1nnc2ccccc21",
    "dataValue": "4.72 µM (active)"
  },
  {
    "chemSmiles": "O=C(c1ccc([N+](=O)[O-])cc1)N1CCC(Cc2ccccc2)CC1",
    "dataValue": "8.61 µM (active)"
  }
]

API: the following record is the query input.
Exercise: Complete the entry with IC50 for `O=C(CSc1ccc([N+](=O)[O-])cn1)Nc1ccc2c(c1)OCO2`
Solution: 0.951 µM (active)

* * *

systemUnderTest: Fatty acid synthase (Homo sapiens)
assaySummary: inhibition of human FAS-TE enzyme activity – biochemical, endpoint fluorescence intensity, uHTS hits, dose response (AID 624327);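 note: fluorescence from hydrolysis of an O-methyl fluorescein acyl ester substrate by the enzyme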
Assay type: functional
Active and inactive are the calls of the source.
measuredAttribute: IC50

Field: example entries. Status: answers known.
[
  {
    "chemSmiles": "O=[N+]([O-])c1cc(S(=O)(=O)Nc2cccc(C(F)(F)F)c2)ccc1-n1nnc2ccccc21",
    "systemUnderTest": "Fatty acid synthase (Homo sapiens)",
    "measuredAttribute": "IC50",
    "dataValue": "7.12 µM (active)"
  },
  {
    "chemSmiles": "O=C(c1ccc([N+](=O)[O-])cc1)N1CCC(Cc2ccccc2)CC1",
    "systemUnderTest": "Fatty acid synthase (Homo sapiens)",
    "measuredAttribute": "IC50",
    "dataValue": "10.9 µM (active)"
  },
  {
    "chemSmiles": "Cn1c(/C=C/N(Cc2ccccc2)c2ccccc2)c([N+](=O)[O-])c(=O)n(C)c1=O",
    "systemUnderTest": "Fatty acid synthase (Homo sapiens)",
    "measuredAttribute": "IC50",
    "dataValue": "18.8 µM (active)"
  },
  {
    "chemSmiles": "O=C(CSc1ccc([N+](=O)[O-])cn1)Nc1ccc2c(c1)OCO2",
    "systemUnderTest": "Fatty acid synthase (Homo sapiens)",
    "measuredAttribute": "IC50",
    "dataValue": "0.981 µM (active)"
  }
]

API: the following record is the query input.
Exercise: Provide the reported IC50 (system: Fatty acid synthase (Homo sapiens)) for `O=[N+]([O-])c1ccc(S(=O)(=O)Nc2ccc(-c3ccccc3)cc2)cc1`
Solution: 5.95 µM (active)

* * *

systemUnderTest: Corticotropin-releasing factor receptor 2/Corticotropin-releasing factor-binding protein (Homo sapiens, UniProt P24387+Q13324)
Sequence (Q13324 whole entry): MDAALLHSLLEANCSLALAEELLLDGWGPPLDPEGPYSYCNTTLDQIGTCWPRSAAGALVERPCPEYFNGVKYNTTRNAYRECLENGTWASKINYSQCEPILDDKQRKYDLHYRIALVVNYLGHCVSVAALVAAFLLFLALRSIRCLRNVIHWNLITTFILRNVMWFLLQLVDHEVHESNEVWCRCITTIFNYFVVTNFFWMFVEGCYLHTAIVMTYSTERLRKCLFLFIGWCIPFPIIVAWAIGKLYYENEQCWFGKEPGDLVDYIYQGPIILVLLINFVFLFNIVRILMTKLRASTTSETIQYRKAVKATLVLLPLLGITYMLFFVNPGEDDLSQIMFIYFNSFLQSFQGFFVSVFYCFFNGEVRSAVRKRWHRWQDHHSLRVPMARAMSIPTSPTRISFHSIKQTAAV
Sequence (P24387 whole entry): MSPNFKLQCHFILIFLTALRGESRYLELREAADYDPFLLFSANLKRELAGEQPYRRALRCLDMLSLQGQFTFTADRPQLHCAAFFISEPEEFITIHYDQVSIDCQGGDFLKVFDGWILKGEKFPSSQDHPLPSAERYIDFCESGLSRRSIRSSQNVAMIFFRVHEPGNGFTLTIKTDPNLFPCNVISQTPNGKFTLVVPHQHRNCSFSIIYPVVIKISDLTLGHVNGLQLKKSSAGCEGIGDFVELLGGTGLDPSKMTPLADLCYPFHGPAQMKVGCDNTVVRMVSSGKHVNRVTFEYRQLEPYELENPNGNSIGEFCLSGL
assaySummary: activators of CRF receptor 2 with binding protein – uHTS hits, confirmation (AID 602473)
Assay type: functional
testConditions: read-out: EC50_Mean
Active and inactive are the calls of the source.
measuredAttribute: EC50

Exercise: Complete the entry with EC50 for `COc1ccccc1C(=O)NCCC(=O)N1CCN(c2ccccc2O)CC1`
Solution: > 53 µM (inactive)

Exercise: Complete the entry with EC50 for `COc1cc(CCc2ccccc2)c(C(=O)O)c(O)c1CC=C(C)C`
Solution: 35.2 µM (active)

Exercise: Complete the entry with EC50 for CC(C)(C)C1COc2ccccc2N1C(=O)c1ccccc1Cl (stereo unspecified)
Solution: 11.3 µM (active)

Exercise: Complete the entry with EC50 for Cc1cccc(-c2noc(C(C)NC(=O)c3ccco3)n2)c1 (stereo unspecified)
Solution: > 53 µM (inactive)

Exercise: Complete the entry with EC50 for `CC(C)N(C(=O)C[n+]1ccsc1N)c1ccccc1`
Solution: > 53 µM (inactive)

Exercise: Complete the entry with EC50 for `Cc1ccc(S(=O)(=O)Nc2ccc3ccccc3c2[N+](=O)[O-])cc1`
Solution: > 53 µM (inactive)
